Every entry's value here was drawn from ChEMBL document CHEMBL3596173.

Reported pKi values are given for each entry in this list.
Molecular target: Mu-type opioid receptor (Homo sapiens)
Sequence (P35372 whole entry): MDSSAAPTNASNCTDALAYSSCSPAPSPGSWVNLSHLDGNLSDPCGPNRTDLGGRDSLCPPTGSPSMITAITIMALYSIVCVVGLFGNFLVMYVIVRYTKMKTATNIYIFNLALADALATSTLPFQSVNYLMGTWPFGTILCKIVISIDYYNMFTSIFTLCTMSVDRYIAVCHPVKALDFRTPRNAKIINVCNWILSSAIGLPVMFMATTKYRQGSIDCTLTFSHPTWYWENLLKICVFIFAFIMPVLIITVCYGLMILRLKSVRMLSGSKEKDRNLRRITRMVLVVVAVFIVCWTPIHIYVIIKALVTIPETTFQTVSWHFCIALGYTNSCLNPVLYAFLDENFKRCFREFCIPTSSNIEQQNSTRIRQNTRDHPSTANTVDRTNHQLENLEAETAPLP
Test: Displacement of [3H]-DAMGO from human mu opioid receptor expressed in CHO cells after 60 mins by scintillation counting analysis
Assay type: cell-based
Non-standard residues stand in square brackets, D forms with d. Residues, ends and D or L forms follow the SMILES beside them. *: point of attachment. X1 = OC[C@H]1O[C@@H](O[C@H]2[C@H](O)[C@@H](O)[C@H](*)O[C@@H]2CO)[C@H](O)[C@@H](O)[C@@H]1O; βGlc = OC[C@H]1O[C@@H](*)[C@H](O)[C@@H](O)[C@@H]1O; Aib = CC(C)(N)C(=O)O
Lab note — pKi values are minus log10 of concentrations in M.

{"COMPOUND": "CC(C)C[C@H](NC(=O)[C@H](CO[C@@H]1O[C@H](CO)[C@@H](O)[C@H](O)[C@H]1O)NC(=O)[C@H](CCCCN)NC(=O)[C@H](CC(C)C)NC(=O)[C@H](C)NC(=O)[C@H](CCCCN)NC(=O)[C@H](CCC(=O)O)NC(=O)C(C)(C)NC(=O)[C@H](CC(C)C)NC(=O)[C@H](CC(N)=O)NC(=O)CCNC(=O)[C@H](Cc1ccccc1)N(C)C(=O)CNC(=O)[C@@H](C)NC(=O)[C@@H](N)Cc1ccc(O)cc1)C(N)=O", "STUDY_SYSTEM": "Mu-type opioid receptor (Homo sapiens)", "pKi": 8.32}

Which measured pKi value corresponds to CC(C)C[C@H](NC(=O)[C@H](CO[C@@H]1O[C@H](CO)[C@@H](O)[C@H](O)[C@H]1O)NC(=O)[C@H](CCCCN)NC(=O)[C@H](CC(C)C)NC(=O)[C@H](C)NC(=O)[C@H](CCCCN)NC(=O)[C@H](CCC(=O)O)NC(=O)C(C)(C)NC(=O)[C@H](CC(C)C)NC(=O)[C@H](CC(N)=O)NC(=O)[C@@H]1CCCN1C(=O)[C@H](CC(C)C)NC(=O)[C@H](Cc1ccccc1)NC(=O)CNC(=O)[C@@H](NC(=O)[C@@H](N)Cc1ccc(O)cc1)[C@@H](C)O)C(N)=O ?
8.59

Check CC(C)C[C@H](NC(=O)[C@H](Cc1ccccc1)NC(=O)CNC(=O)[C@@H](NC(=O)[C@@H](N)Cc1ccc(O)cc1)[C@@H](C)O)C(=O)N[C@@H](CO[C@@H]1O[C@H](CO)[C@@H](O[C@@H]2O[C@H](CO)[C@@H](O)[C@H](O)[C@H]2O)[C@H](O)[C@H]1O)C(N)=O (H-YTGFLS(X1)-NH2) too.
8.30

Same again, this time with CC(C)C[C@H](NC(=O)[C@H](CO[C@@H]1O[C@H](CO)[C@@H](O)[C@H](O)[C@H]1O)NC(=O)[C@H](CCCCN)NC(=O)[C@H](CC(C)C)NC(=O)[C@H](C)NC(=O)[C@H](CCCCN)NC(=O)[C@H](CCC(=O)O)NC(=O)C(C)(C)NC(=O)[C@H](CC(C)C)NC(=O)[C@H](CC(N)=O)NC(=O)[C@H](C)NC(=O)[C@H](CC(C)C)NC(=O)[C@H](Cc1ccccc1)NC(=O)CNC(=O)[C@@H](NC(=O)[C@@H](N)Cc1ccc(O)cc1)[C@@H](C)O)C(N)=O (H-YTGFLANL[Aib]EKALKS(βGlc)L-NH2)
7.41

Note, next up: CC(C)C[C@H](NC(=O)[C@H](CO[C@@H]1O[C@H](CO)[C@@H](O)[C@H](O)[C@H]1O)NC(=O)[C@H](CCCCN)NC(=O)[C@H](CC(C)C)NC(=O)[C@H](C)NC(=O)[C@H](CC(N)=O)NC(=O)[C@H](CCC(=O)O)NC(=O)C(C)(C)NC(=O)[C@H](CC(C)C)NC(=O)[C@H](CC(N)=O)NC(=O)CNC(=O)CNC(=O)[C@H](Cc1ccccc1)N(C)C(=O)CNC(=O)[C@@H](C)NC(=O)[C@@H](N)Cc1ccc(O)cc1)C(N)=O
5.92
